Target: 5-HT4 receptor (Rattus norvegicus)
Construct: One 2 cm segment of intrathoracic esophagus proximal to the diaphragm was removed from male rats
Sequence (Q62758 whole entry): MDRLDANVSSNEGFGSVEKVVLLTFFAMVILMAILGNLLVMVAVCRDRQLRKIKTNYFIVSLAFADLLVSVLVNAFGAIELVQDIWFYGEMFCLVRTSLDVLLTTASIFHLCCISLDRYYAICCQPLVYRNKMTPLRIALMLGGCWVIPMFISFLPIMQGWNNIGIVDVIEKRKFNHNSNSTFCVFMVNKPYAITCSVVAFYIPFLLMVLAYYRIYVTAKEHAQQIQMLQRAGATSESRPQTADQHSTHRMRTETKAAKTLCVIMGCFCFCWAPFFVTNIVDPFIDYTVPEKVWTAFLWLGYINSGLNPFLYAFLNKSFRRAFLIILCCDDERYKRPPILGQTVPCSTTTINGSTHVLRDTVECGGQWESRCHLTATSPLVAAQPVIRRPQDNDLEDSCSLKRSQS
Test: cell-based
Settings: carbachol (3 μM)-contracted rat TMM, 37° C., tissues from 5 rats; read-out: 5-HT4 Agonism (Rat TMM) In Vitro Assay: EC50 values
Structures can show the parent of a compound that is named as a salt.
Quick reference: EC50 of the listed items.
Field: numeric (nM). Do not append units.

Use the examples below as a reference point.
- Compound: "COc1cc(N)c(Cl)cc1C(=O)NC1CCN(CCCOc2ccc(F)cc2)CC1OC (stereo not shown) [Cisapride]"
  EC50, nM: 55
- Compound: "COc1cc(N)c(Cl)cc1C(=O)N[C@H]1[C@@H]2C[C@@H]3C[C@H]1CN3C2 [Example 4, hydrochloride]"
  EC50, nM: 712

Please examine the following record next.
Can you share its EC50? I mean this compound: COc1cc(N)c(Cl)cc1C(=O)N[C@@H]1[C@@H]2C[C@@H]3C[C@H]1CN3C2 [Example 6, monohydrochloride]
382
